# MEASURED_ON: PKA hRIα CNB-A (115–274) (Homo sapiens)
# ASSAY_INFO: SPR solution competition

| STRUCTURE_SMILES_STRING | MEASURED_ON | EC50 / nM |
| --- | --- | --- |
| O=c1[nH]cnc2c1ncn2[C@@H]1O[C@@H]2COP(=O)(O)O[C@H]2[C@H]1O | PKA hRIα CNB-A (115–274) (Homo sapiens) | 273 |

* * *

# MEASURED_ON: PKA hRIα CNB-B (234–381) (Homo sapiens, UniProt P10644, A336T/G316R/V315L)
# ASSAY_INFO: SPR solution competition
PROPERTY_LABEL: EC50 (nM)

| MOLECULE | PROPERTY_LABEL | UNIT_OF_MEASURE | RECORDED_RESULT |
| --- | --- | --- | --- |
| Nc1nc2c(ncn2[C@@H]2O[C@@H]3COP(=O)(O)O[C@H]3[C@H]2O)c(=O)[nH]1 [cGMP] | EC50 | nM | 0.6 |

* * *

# MEASURED_ON: PKA hRIα CNB-A (115–274) (Homo sapiens, UniProt P10644, T192R)
# ASSAY_INFO: SPR solution competition
EC50 overview

| STRUCTURE_SMILES_STRING | UNIT_OF_MEASURE | EC50 |
| --- | --- | --- |
| O=c1[nH]cnc2c1ncn2[C@@H]1O[C@@H]2COP(=O)(O)O[C@H]2[C@H]1O | nM | 156 |
| Nc1nc2c(ncn2[C@@H]2O[C@@H]3COP(=O)(O)O[C@H]3[C@H]2O)c(=O)[nH]1 | nM | 1530 |

* * *

# MEASURED_ON: PKA hRIα CNB-B (234–381) (Homo sapiens, UniProt P10644, G316R/V315L)
# ASSAY_INFO: SPR solution competition

| STRUCTURE_SMILES_STRING | UNIT_OF_MEASURE | EC50 |
| --- | --- | --- |
| Nc1nc2c(ncn2[C@@H]2O[C@@H]3COP(=O)(O)O[C@H]3[C@H]2O)c(=O)[nH]1 | nM | 66 |

* * *

# MEASURED_ON: PKA hRIα CNB-B (234–381) (Homo sapiens, UniProt P10644, A336T/G316R)
# ASSAY_INFO: SPR solution competition
# Format: binding

| STRUCTURE_SMILES_STRING | EC50 |
| --- | --- |
| Nc1nc2c(ncn2[C@@H]2O[C@@H]3COP(=O)(O)O[C@H]3[C@H]2O)c(=O)[nH]1 | 0.4 nM |

* * *

# MEASURED_ON: PKA hRIα CNB-B (234–381) (Homo sapiens, UniProt P10644)
# ASSAY_INFO: SPR solution competition
# Format: binding
pEC50: −log10 of the molar value.

| STRUCTURE_SMILES_STRING | MEASURED_ON | pEC50 |
| --- | --- | --- |
| O=c1[nH]cnc2c1ncn2[C@@H]1O[C@@H]2COP(=O)(O)O[C@H]2[C@H]1O | PKA hRIα CNB-B (234–381) (Homo sapiens, UniProt P10644) | 6.94 |

* * *

# MEASURED_ON: PKA hRIα CNB-A (115–274) (Homo sapiens, UniProt P10644, A212T/T192R)
# ASSAY_INFO: SPR solution competition
pEC50: −log10 of the molar value.
PROPERTY_LABEL: pEC50

| STRUCTURE_SMILES_STRING | RECORDED_RESULT |
| --- | --- |
| Nc1nc2c(ncn2[C@@H]2O[C@@H]3COP(=O)(O)O[C@H]3[C@H]2O)c(=O)[nH]1 | 7.62 |

* * *

# MEASURED_ON: PKA hRIα CNB-A (115–274) (Homo sapiens, UniProt P10644, A212T)
# ASSAY_INFO: SPR solution competition
PROPERTY_LABEL: EC50 (µM)

| COMPOUND | RECORDED_RESULT |
| --- | --- |
| Nc1nc2c(ncn2[C@@H]2O[C@@H]3COP(=O)(O)O[C@H]3[C@H]2O)c(=O)[nH]1 [cGMP] | 0.083 |

* * *

# MEASURED_ON: PKA hRIα CNB-B (234–381) (Homo sapiens, UniProt P10644, V315L)
# ASSAY_INFO: SPR solution competition

| STRUCTURE_SMILES_STRING | UNIT_OF_MEASURE | EC50 |
| --- | --- | --- |
| Nc1nc2c(ncn2[C@@H]2O[C@@H]3COP(=O)(O)O[C@H]3[C@H]2O)c(=O)[nH]1 | nM | 678 |
